- Tested on: 292921-168-R-J2-PDC complex spheroid viability
- ASSAY METHOD TEXT: Anticancer human tumor 292921-168-R-J2-PDC patient-derived pancreatic carcinoma cell line growth inhibition
- STATED CONDITIONS: second compound 0.316 µM; first compound 3.16 µM; active compounds read low
PROPERTY MEASURED: viability, T/C (%)

{"columns": ["COMPOUND", "PROPERTY MEASURED", "MEAS VALUE"],
 "data": [
  ["COc1ccc([C@@H](O)c2cc(-c3ncnc4cc(N5CCOCC5)ccc34)c(F)cc2Cl)nn1 + NC1CCC(NC2CC2c2ccccc2)CC1", "viability, T/C", 17.1],
  ["CC1COCCN1c1cc(C2(S(C)(=N)=O)CC2)nc(-c2ccnc3[nH]ccc23)n1 (configuration not stated) + NC1CC1c1ccc(-c2cccc(O)c2)cc1", "viability, T/C", 15.4],
  ["CC(C)c1c(-c2ccccc2)nc2c(C#N)c[nH]n2c1=O + NC1CCC(NC2CC2c2ccccc2)CC1", "viability, T/C", 64.2],
  ["COc1ccc([C@@H](O)c2cc(-c3ncnc4cc(N5CCOCC5)ccc34)c(F)cc2Cl)nn1 + NC1CC1c1ccc(-c2cccc(O)c2)cc1", "viability, T/C", 18.2],
  ["CC1(C)CCC(CN2CCN(c3ccc(C(=O)NS(=O)(=O)c4ccc(NCC5CCOCC5)c([N+](=O)[O-])c4)c(Oc4cnc5[nH]ccc5c4)c3)CC2)=C(c2ccc(Cl)cc2)C1 + NC1CC1c1ccc(-c2cccc(O)c2)cc1", "viability, T/C", 22.5],
  ["O=C(c1cc(Cc2n[nH]c(=O)c3ccccc23)ccc1F)N1CCN(C(=O)C2CC2)CC1 + NC1CCC(NC2CC2c2ccccc2)CC1", "viability, T/C", 47.5],
  ["O=C(c1cc(Cc2n[nH]c(=O)c3ccccc23)ccc1F)N1CCN(C(=O)C2CC2)CC1 + NC1CC1c1ccc(-c2cccc(O)c2)cc1", "viability, T/C", 46.6]
]}

----------
- Tested on: 292921-168-R-J2-PDC complex spheroid viability
- ASSAY METHOD TEXT: Anticancer human tumor 292921-168-R-J2-PDC cell line growth inhibition; active means viability on the fitted dose curve at most 10% of control; inactive means the rest;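 note: seven day compound exposure before luminescent viability read; 100% = DMSO vehicle control wells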
- STATED CONDITIONS: second compound 0.316 µM; first compound 0.00949 µM
Possible outcomes: active, inactive

{"columns": ["COMPOUND", "LABEL"],
 "data": [
  ["Nc1ccccc1NC(=O)c1ccc(CNC(=O)OCc2cccnc2)cc1 + NC1CCC(NC2CC2c2ccccc2)CC1", "inactive"],
  ["Nc1ncn(C2CC(O)C(CO)S2)c(=O)n1 (centres undefined) + NC1CCC(NC2CC2c2ccccc2)CC1", "inactive"],
  ["COc1cc(C2c3cc4c(cc3C(OC3OC5COC(C)OC5C(O)C3O)C3COC(=O)C23)OCO4)cc(OC)c1O (centres undefined) + NC1CC1c1ccc(-c2cccc(O)c2)cc1", "inactive"],
  ["NS(=O)(=O)OCC1CC(n2ccc3c(NC4CCc5ccccc54)ncnc32)CC1O (centres undefined) + NC1CC1c1ccc(-c2cccc(O)c2)cc1", "inactive"],
  ["CCc1c2c(nc3ccc(O)cc13)-c1cc3c(c(=O)n1C2)COC(=O)[C@]3(O)CC + NC1CCC(NC2CC2c2ccccc2)CC1", "active"],
  ["Nc1ccn(C2OC(CO)C(O)C2(F)F)c(=O)n1 (centres undefined) + NC1CC1c1ccc(-c2cccc(O)c2)cc1", "active"],
  ["O=C(C=Cc1cccc(S(=O)(=O)Nc2ccccc2)c1)NO + NC1CCC(NC2CC2c2ccccc2)CC1", "inactive"],
  ["Nc1ncn(C2CC(O)C(CO)S2)c(=O)n1 (centres undefined) + NC1CC1c1ccc(-c2cccc(O)c2)cc1", "inactive"],
  ["COc1cc(C2c3cc4c(cc3C(OC3OC5COC(C)OC5C(O)C3O)C3COC(=O)C23)OCO4)cc(OC)c1O (centres undefined) + NC1CCC(NC2CC2c2ccccc2)CC1", "inactive"]
]}

----------
- Tested on: 292921-168-R-J2-PDC complex spheroid viability
- ASSAY METHOD TEXT: Anticancer human tumor 292921-168-R-J2-PDC cell line growth inhibition;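 note: seven day compound exposure before luminescent viability read; 100% = DMSO vehicle control wells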
- STATED CONDITIONS: second compound 1 µM; first compound 0.001 µM; active compounds read low
PROPERTY MEASURED: viability, T/C (%)

{"columns": ["MOLECULE", "ASSAYED SYSTEM", "PROPERTY MEASURED", "MEAS VALUE"],
 "data": [
  ["CC[C@@]1(O)C(=O)OCc2c1cc1n(c2=O)Cc2cc3c(CN(C)C)c(O)ccc3nc2-1 + NC1CCC(NC2CC2c2ccccc2)CC1", "292921-168-R-J2-PDC complex spheroid viability", "viability, T/C", 56.4],
  ["CC(C)CC(NC(=O)CNC(=O)c1cc(Cl)ccc1Cl)B1OC(=O)CC(CC(=O)O)(C(=O)O)O1 (stereo not drawn) + NC1CC1c1ccc(-c2cccc(O)c2)cc1", "292921-168-R-J2-PDC complex spheroid viability", "viability, T/C", 74],
  ["CC(C)CC(NC(=O)CNC(=O)c1cc(Cl)ccc1Cl)B1OC(=O)CC(CC(=O)O)(C(=O)O)O1 (stereo not drawn) + NC1CCC(NC2CC2c2ccccc2)CC1", "292921-168-R-J2-PDC complex spheroid viability", "viability, T/C", 73],
  ["CC(C)CC(NC(=O)C(Cc1ccccc1)NC(=O)c1cnccn1)B(O)O (stereo not drawn) + NC1CCC(NC2CC2c2ccccc2)CC1", "292921-168-R-J2-PDC complex spheroid viability", "viability, T/C", 0.64],
  ["CC(C)CC(NC(=O)C(Cc1ccccc1)NC(=O)c1cnccn1)B(O)O (stereo not drawn) + NC1CC1c1ccc(-c2cccc(O)c2)cc1", "292921-168-R-J2-PDC complex spheroid viability", "viability, T/C", 1.68],
  ["Cn1ncnc1C1c2n[nH]c(=O)c3cc(F)cc(c23)NC1c1ccc(F)cc1 (stereo not drawn) + NC1CC1c1ccc(-c2cccc(O)c2)cc1", "292921-168-R-J2-PDC complex spheroid viability", "viability, T/C", 62.8],
  ["Cn1ncnc1C1c2n[nH]c(=O)c3cc(F)cc(c23)NC1c1ccc(F)cc1 (stereo not drawn) + NC1CCC(NC2CC2c2ccccc2)CC1", "292921-168-R-J2-PDC complex spheroid viability", "viability, T/C", 60.3],
  ["CC[C@@]1(O)C(=O)OCc2c1cc1n(c2=O)Cc2cc3c(CN(C)C)c(O)ccc3nc2-1 + NC1CC1c1ccc(-c2cccc(O)c2)cc1", "292921-168-R-J2-PDC complex spheroid viability", "viability, T/C", 56.7]
]}

----------
- Tested on: 292921-168-R-J2-PDC complex spheroid viability
- ASSAY METHOD TEXT: Anticancer human tumor 292921-168-R-J2-PDC cell line growth inhibition; active = viability on the fitted dose curve at most 10% of control; inactive = the rest;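 note: seven day compound exposure before luminescent viability read; 100% = DMSO vehicle control wells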
- STATED CONDITIONS: second compound 1 µM; first compound 3 µM
Possible outcomes: active, inactive

{"columns": ["MOLECULE", "LABEL"],
 "data": [
  ["COc1cc(C2c3cc4c(cc3C(OC3OC5COC(C)OC5C(O)C3O)C3COC(=O)C23)OCO4)cc(OC)c1O (stereo not given) + NC1CCC(NC2CC2c2ccccc2)CC1", "active"],
  ["CCN(c1cc(-c2ccc(CN3CCOCC3)cc2)cc(C(=O)NCc2c(C)cc(C)[nH]c2=O)c1C)C1CCOCC1 + NC1CCC(NC2CC2c2ccccc2)CC1", "inactive"],
  ["NS(=O)(=O)OCC1CC(n2ccc3c(NC4CCc5ccccc54)ncnc32)CC1O (stereo not given) + NC1CC1c1ccc(-c2cccc(O)c2)cc1", "active"],
  ["O=C(C=Cc1cccc(S(=O)(=O)Nc2ccccc2)c1)NO + NC1CC1c1ccc(-c2cccc(O)c2)cc1", "active"],
  ["Nc1ccccc1NC(=O)c1ccc(CNC(=O)OCc2cccnc2)cc1 + NC1CCC(NC2CC2c2ccccc2)CC1", "active"],
  ["COc1cc(C2c3cc4c(cc3C(OC3OC5COC(C)OC5C(O)C3O)C3COC(=O)C23)OCO4)cc(OC)c1O (stereo not given) + NC1CC1c1ccc(-c2cccc(O)c2)cc1", "active"],
  ["CCN(c1cc(-c2ccc(CN3CCOCC3)cc2)cc(C(=O)NCc2c(C)cc(C)[nH]c2=O)c1C)C1CCOCC1 + NC1CC1c1ccc(-c2cccc(O)c2)cc1", "inactive"],
  ["Nc1ccccc1NC(=O)c1ccc(CNC(=O)OCc2cccnc2)cc1 + NC1CC1c1ccc(-c2cccc(O)c2)cc1", "active"],
  ["O=C(C=Cc1cccc(S(=O)(=O)Nc2ccccc2)c1)NO + NC1CCC(NC2CC2c2ccccc2)CC1", "active"],
  ["NS(=O)(=O)OCC1CC(n2ccc3c(NC4CCc5ccccc54)ncnc32)CC1O (stereo not given) + NC1CCC(NC2CC2c2ccccc2)CC1", "active"]
]}
